System: Bacteroides thetaiotaomicron
Test: growth AUC relative to DMSO control (median of replicates) (fraction); higher = more growth (less inhibition), active = hit call of the paper
Settings: 20 µM; 24 h
Readout name: growth AUC
Give bare numbers.

Reference set (4 entries):
> print(dat)
                                   molecule  readout.name  recorded.value
1                                 CCOC(N)=O    growth AUC            1.01
2                CCCCCCCC/C=C\CCCCCCCCCCCCC    growth AUC           0.995
3                             CC(C)c1ccccc1    growth AUC           0.999
4  COC(=O)C(C)Oc1ccc(Oc2ncc(C(F)(F)F)cc2Cl)cc1 (centres undefined)    growth AUC           0.992

Please supply growth AUC for each of the following items, keeping them in order.
1. CCCCCCCCc1c(CC)nc2ncnn2c1N
2. Oc1ccc2ccccc2c1N=Nc1ccccc1
3. CCOC(=O)c1cnn(C)c1S(=O)(=O)NC(=O)Nc1nc(OC)cc(OC)n1
4. O=[N+]([O-])c1ccc(O)cc1
5. CCc1cccc(CC)c1N(COC)C(=O)C(=O)O
6. CCCCOC(=O)C(C)Oc1ccc(Oc2ccc(C(F)(F)F)cn2)cc1 (centres undefined)
7. COc1c(I)cc(C#N)cc1I

a:
[0.97, 1, 0.966, 1.02, 1.03, 0.959, 0.932]

Please supply growth AUC for each of the following items, keeping them in order.
1. CCCCOCN(C(=O)CS(=O)(=O)[O-])c1c(CC)cccc1CC.[Na+]
2. CN(C)c1ccc(N=NS(=O)(=O)[O-])cc1.[Na+]
3. COC(=O)CC(NC(=O)[C@@H](NC(=O)OC(C)C)C(C)C)c1ccc(Cl)cc1 (some centres undefined)

a:
[0.934, 0.955, 0.981]

====

System: Bifidobacterium longum subsp. longum
Assay: growth AUC relative to DMSO control (median of replicates) (fraction); higher = more growth (less inhibition), active = hit call of the paper
Conditions: 20 µM; 24 h
For each record, write down the corresponding growth AUC.
Give bare numbers.

> print(dat)
                          compound                           test.target  readout.name  recorded.value
1  CCc1cccc(C)c1N(COC(C)C)C(=O)CCl  Bifidobacterium longum subsp. longum    growth AUC            1.02

Please supply growth AUC for each of the following items, keeping them in order.
1. CC(CNC(=S)[S-])NC(=S)[S-].[Zn+2] (mixture of isomers)
2. O=C(Nc1ccc(Cl)cc1C(O)c1ccccc1)c1ccncc1 (stereo not drawn)
3. Cc1cc(C)cc(O)c1
4. c1ccc(CNc2ncnc3nc[nH]c23)cc1

a:
1: 0.975; 2: 1.01; 3: 0.906; 4: 0.975

Please supply growth AUC for each of the following items, keeping them in order.
1. Br[C@@H]1CC[C@@H](Br)[C@@H](Br)CC[C@@H](Br)[C@@H](Br)CC[C@H]1Br
2. CCc1nc2ncnn2c(N)c1CCCCCC(=O)O.Cl
3. CCOC(=O)Nc1cccc(OC(=O)Nc2cccc(C)c2)c1
4. CNC(=O)/C(=N/OC)c1ccccc1CO/N=C(C)/C(=N/OC)C(/C)=N/OC
5. COC(=O)C(C)Oc1ccc(Oc2ccc(C(F)(F)F)cn2)cc1 (stereo not drawn)

a:
1: 0.779; 2: 0.963; 3: 1.02; 4: 0.989; 5: 1.02

Please supply growth AUC for each of the following items, keeping them in order.
1. CCOCCc1ccc(OCCNc2ncnc(CC)c2Cl)c(C)c1C
2. CCCCOC(=O)COc1ccc(Cl)cc1Cl
3. O=C(O)Cc1cccc2ccccc12
4. CCC/C(=N\OCC)C1=C(O)CC(C2CCCSC2)CC1=O (stereo not drawn)
5. CNC(=O)/C(=N/OC)c1ccccc1COc1cc(C)ccc1C
6. CN1CCC[C@H]1c1cccnc1
7. CC(C)(NC(=O)C(Br)C(C)(C)C)c1ccccc1 (stereo not drawn)

a:
1. 0.923
2. 0.965
3. 1.03
4. 1.04
5. 0.972
6. 1.01
7. 0.84

q: Using the record for `CC(C)NS(=O)(=O)NC(=O)c1cc(-n2c(=O)cc(C(F)(F)F)[nH]c2=O)c(F)cc1Cl` , state its measured growth AUC.
a: 0.993

Origin of values: the supplement of paper PMC12669032
